System: Glucocorticoid Receptor
Test: Receptor bond: relative molar binding affinity to the glucocorticoid receptor
Conditions: Dexamethasone = 100%
endpoint label: Relative Molar Binding-affinity RBA (%) to the Glucocorticoid Receptor
Respond numerically; units are % and should not be typed.

# query: Relative Molar Binding-affinity RBA (%) to the Glucocorticoid Receptor of entry CC12CC(c3ccc(C=NO)cc3)C3=C4CCC(=O)C=C4CCC3C1CCC2(O)C(F)(F)F (stereo not shown) [Example 1]
163

# query: Relative Molar Binding-affinity RBA (%) to the Glucocorticoid Receptor of entry CC12CC(c3ccc(C=NO)cc3)C3=C4CCC(=O)C=C4CCC3C1CCC2(O)C(F)(F)F (stereo not shown) [Compound No. 2]
113

# query: Relative Molar Binding-affinity RBA (%) to the Glucocorticoid Receptor of entry CCNC(=O)ON=Cc1ccc(C2CC3(C)C(CCC3(O)C(F)(F)F)C3CCC4=CC(=O)CCC4=C23)cc1 (stereo not shown)
187

# query: Relative Molar Binding-affinity RBA (%) to the Glucocorticoid Receptor of entry CC(=O)ON=Cc1ccc(C2CC3(C)C(CCC3(O)C(F)(F)C(F)(F)F)C3CCC4=CC(=O)CCC4=C23)cc1 (stereo not shown)
10

Ref: patent US6825182B2
